Test system: SK-MEL-28
PROTOCOL NOTES: NCI tumour cell line growth inhibition, 48 h
Calls of active or inactive are those of the source. Rule as the data show it: active = GI50 up to about 1.1 µM and inactive = higher.
MEASURED PARAMETER: GI50

Sample Cn1cnnc1Sc1c([N+](=O)[O-])ncn1C — what was its GI50?
36.9 µM (inactive)

Sample O=C(CCSC1=NCCCN1)c1ccc(F)cc1 — what was its GI50?
18.7 µM (inactive)

Sample c1cc2c3c(c1)c1cc4c(cc1c[n+]3CC2)OCO4 [ANHYDROLYCORINIUM CHLORIDE] — what was its GI50?
4.82 µM (inactive)

Sample C=C1CC2(CCOc3ccc(Cl)cc32)OC1=O (stereo not drawn) — what was its GI50?
8.38 µM (inactive)

Sample CCOC(=O)Oc1ccc2[nH]c3c(C)cc(N)c(C)c3c2c1 — what was its GI50?
> 100 µM (inactive)

Sample COC(=O)/C(=N\N)C(C(=O)C(=O)Nc1nnc(S)[nH]1)c1nc2ccc([N+](=O)[O-])cc2nc1O (stereo not drawn) — what was its GI50?
> 100 µM (inactive)

Sample O=C1OC(c2ccc(Cl)c3ccccc23)c2ccccc21 (stereo not drawn) — what was its GI50?
> 100 µM (inactive)

Sample CCCCCCCCCCCCCC1=C(O)C(=O)C(CC2=C(O)C(=O)C(CCCCCCCCCCCCC)=C(O)C2=O)=C(O)C1=O — what was its GI50?
> 100 µM (inactive)

Sample CCOC(=O)C(Cc1cccn1C(=O)OC(C)(C)C)[N+](=O)[O-] (stereo not drawn) — what was its GI50?
27.4 µM (inactive)

Sample O=C1N(Cc2ccccc2)C2CSCC2N1Cc1ccccc1 (stereo not drawn) — what was its GI50?
37.7 µM (inactive)

Sample NNC(=O)c1c(Cl)c(Cl)c(Cl)c(Cl)c1-c1nc2ccccc2[nH]1 — what was its GI50?
15.8 µM (inactive)

Sample CC(C)(C)c1cc(COc2cc(COc3ccc(-c4c5c(nc6c4CCc4ccc(-c7c8ccccc8nc8ccccc78)cc4-6)-c4cc(-c6c7ccccc7nc7ccccc67)ccc4CC5)cc3)cc(OCc3cc(C(C)(C)C)cc(C(C)(C)C)c3)c2)cc(C(C)(C)C)c1 — what was its GI50?
> 100 µM (inactive)

Sample COC(=O)C(COC(=O)/C=C/c1ccc(OC(C)=O)c(OC(C)=O)c1)NC(=O)/C=C/c1ccc(OC(C)=O)c(OC(C)=O)c1 (stereo not drawn) — what was its GI50?
26.2 µM (inactive)

Sample Cc1ccc(/N=N/c2c(C)nn(C(=O)CC(=O)Nc3ccc(Cl)cc3)c2C)cc1C — what was its GI50?
> 100 µM (inactive)

Sample O=C(c1ccccc1)N1OCCC1Nc1ccc(Br)cc1 (stereo not drawn) — what was its GI50?
> 10 µM (inactive)

Sample COC(=O)C(CCCCN)NC(=O)C(CCCCN)NC(C)=O.Cc1ccc(C(=O)Nc2ccc(S(=O)(=O)O)c3cc(S(=O)(=O)O)cc(S(=O)(=O)O)c23)cc1NC(=O)c1cccc(NC(=O)Nc2cccc(C(=O)Nc3cc(C(=O)Nc4ccc(S(=O)(=O)O)c5cc(S(=O)(=O)O)cc(S(=O)(=O)O)c45)ccc3C)c2)c1 — what was its GI50?
> 50 µM (inactive)

Sample Cc1ccc(N)cc1.O=S(=O)(O)/C(=C\c1ccccc1)c1ccccc1 — what was its GI50?
> 100 µM (inactive)

Sample COCC(=O)OC1CCn2c1nc1c2C(=O)C(C)=C(NC(C)=O)C1=N (stereo not drawn) — what was its GI50?
4.59 µM (inactive)

====

Tested on: COLO 205
PROTOCOL NOTES: NCI tumour cell line growth inhibition, 48 h
The source made the active and inactive calls. Rule as the data show it: active = GI50 up to about 1.1 µM and inactive = higher.
MEASURED PARAMETER: GI50

Sample Cc1nc2ccccc2n1Cc1ccc(NC(=S)NC2CCCCC2)cc1 — what was its GI50?
31.1 µM (inactive)

Sample CCOC(=O)C1=C(OC(OCC)C(C)[Se]c2ccccc2)CCC1 (stereo not given) — what was its GI50?
25.1 µM (inactive)

Sample Cc1c(C(=O)OCc2ccccc2)[n+]([O-])c2ccccc2[n+]1[O-] — what was its GI50?
18.5 µM (inactive)

Sample CC(=O)O[C@@H]1[C@H](C(C)C)[C@@H](OC(C)=O)C/C(C)=C/CC[C@]2(C)O[C@@H]12 — what was its GI50?
> 100 µM (inactive)

Sample CN1CCN(C(=S)N(C(=O)c2cccs2)C2CCCCC2)CC1 — what was its GI50?
> 100 µM (inactive)

====

System: SN12C
PROTOCOL NOTES: NCI tumour cell line growth inhibition, 48 h
The source made the active and inactive calls. No stated cut-off is given here; in the data, active = GI50 up to about 1.1 µM and inactive = higher.
MEASURED PARAMETER: GI50

Sample CNS(=O)(=O)c1ccc2c(c1)/C(=C1/Nc3ccccc3C1=O)C(=O)N2 — what was its GI50?
> 100 µM (inactive)

Sample CC1(C)C=C(/C=N/Nc2ccc([N+](=O)[O-])cc2)C(C#N)=C(O)C1(C#N)C#N — what was its GI50?
> 100 µM (inactive)

Sample O=c1c2cc([N+](=O)[O-])cnc2sn1-c1ccc(Oc2ccccc2)cc1 — what was its GI50?
> 100 µM (inactive)

Sample CC1(c2ccc[n+](Cc3ccccc3)c2)OCCO1 — what was its GI50?
> 100 µM (inactive)

Sample CC(=O)OC1CC2C(C)(C)C(=O)C=C[C@]2(C)C2CCC3(C)C(=CC(=O)C3c3ccoc3)[C@]12C (some centres undefined) — what was its GI50?
16.7 µM (inactive)

Sample Nn1c(Nc2ccc(S(=O)(=O)Nc3ncccn3)cc2)nnc(/C=C/c2c(O)ccc3ccccc23)c1=O — what was its GI50?
28.3 µM (inactive)

Sample Cc1ccc(N)cc1.O=S(=O)(O)/C(=C\c1ccccc1)c1ccccc1 — what was its GI50?
> 100 µM (inactive)

Sample NNc1nc2ccccc2c(=O)n1NC(=O)C(=O)Nc1cccc(C(F)(F)F)c1 — what was its GI50?
> 100 µM (inactive)

Sample CCCCCCCCCCCCCC(=O)OCC1OC(OC)C(NC(=O)N(CCCl)N=O)C(O)C1O (centres undefined) — what was its GI50?
25.5 µM (inactive)

====

System: HT-29
PROTOCOL NOTES: NCI tumour cell line growth inhibition, 48 h
Active and inactive are the calls of the source. No stated cut-off is given here; in the data, active = GI50 up to about 1.1 µM and inactive = higher. Where a SMILES comes first, the peptide text is derived from it. Bridges are numbered along the chain shown (N, C = ends). [ ]: non-standard residue; d: D form. The star is where a group is joined. ξ: configuration not given here. PhAc = O=C(Cc1ccccc1)*; ξP = O=C(O)C1CCCN1
MEASURED PARAMETER: GI50

Sample O=C1[C@H]2ON(c3ccccc3)C(c3ccc([N+](=O)[O-])cc3)[C@H]2C(=O)N1c1ccc(Cc2ccc(N3C(=O)[C@@H]4ON(c5ccccc5)C(c5ccc([N+](=O)[O-])cc5)[C@@H]4C3=O)cc2)cc1 (stereo partly drawn) — what was its GI50?
> 100 µM (inactive)

Sample COc1ccc2c(c1)C1C(CO2)C(c2ccccc2)=NN1c1ccccc1 (stereo not drawn) — what was its GI50?
> 100 µM (inactive)

Sample CCc1cc2c(c3c1CCCC3=O)CC1(C2)Cc2cc(CC)c3c(c2C1)C(=O)CCC3 — what was its GI50?
76.2 µM (inactive)

Sample Cc1ccc2c(sc(-c3ccc4c(c3)sc(-c3ccc(N(C)C)cc3)[n+]4C)[n+]2C)c1S(=O)(=O)O.Cc1ccc2c(sc(-c3ccc4c(c3)sc(-c3ccc5c(c3)sc(-c3ccc(N(C)C)cc3)[n+]5C)[n+]4C)[n+]2C)c1S(=O)(=O)O — what was its GI50?
> 100 µM (inactive)

Sample CCCCCCCCCC1CC(=O)OC23CCCC(=O)C12O3 (stereo not drawn) — what was its GI50?
> 100 µM (inactive)

Sample O=C(Cc1ccccc1)N[C@@H]1COC(=O)C2CCCN2C(=O)[C@@H]2CCCN2C1=O (stereo partly drawn) (PhAc-[dS]-Pro-[ξP]; ester 1-C) — what was its GI50?
> 100 µM (inactive)

Sample Cc1ccccc1/N=N/C(C(=O)c1ccccc1)C(=O)c1ccccc1 — what was its GI50?
28 µM (inactive)

Sample CN1CCC23c4ccccc4NC1C21CCN(C)C3Nc2ccccc21 — what was its GI50?
> 375 µM (inactive)

Sample O=C(O)[C@@H]1C[C@@H](O)CN1C(=O)OCc1ccccc1 — what was its GI50?
> 100 µM (inactive)

Sample CCCN(CCCC(NC(C)=O)C(=O)NCc1ccccc1)C(=O)NCCCl (stereo not drawn) — what was its GI50?
> 100 µM (inactive)

Sample COc1c(OC(C)C)c(OC(C)C)c2oc(=O)n3c2c1C(c1ccccc1-n1c(C)ccc1C)C=C3 (stereo not drawn) — what was its GI50?
12.6 µM (inactive)

Sample c1cc2c3c(c1)c1cc4c(cc1c[n+]3CC2)OCO4 [ANHYDROLYCORINIUM CHLORIDE] — what was its GI50?
7.4 µM (inactive)

Sample O=C1NC(=O)C2(CCC(O)C2)c2cc[n+]([O-])cc21 (stereo not drawn) — what was its GI50?
> 100 µM (inactive)

Sample NC(CSC1c2ccccc2-c2ccccc21)C(=O)O (stereo not drawn) — what was its GI50?
> 100 µM (inactive)

Sample O=c1c2cc(O)ccc2n2nnc3ccc(NCCNCCO)c1c32 — what was its GI50?
8.77 µM (inactive)

Sample CC1=C2C(=O)C(C)(C)C=C2C(=O)[C@](C)(O)C12CC2 [DEHYDROILLUDIN M] — what was its GI50?
0.248 µM (active)

Sample CN(C)Cc1c[nH]c2ncnc(O)c12 — what was its GI50?
28.2 µM (inactive)

Sample O=C(COC(c1ccc(F)cc1)c1ccc(F)cc1)N1CCN(CCCc2ccccc2)CC1 — what was its GI50?
3.17 µM (inactive)
